experiment: Solubility measured with a 80% aqueous EtOH solution; assay type: physicochemical; conditions: organic solvent or mixture
Measured metric: Solubility

Compound: NC(=O)c1cnc2[nH]ccc2c1N[C@@H]1[C@@H]2CC3C[C@H]1C[C@@](O)(C3)C2 [Form A01, monohydrate, reference compound]
Endpoint result: < 10000 µg/mL
